# Tested on: rat passive peritoneal anaphylaxis
# run description: Rat passive peritoneal anaphylaxis (PPA)
# Assay type: in vivo
# test parameters: 2 × 10^-6 M injected i.p., mean ± SEM, 3-7 rats per group
property: Dye concentration in peritoneal fluid as % of that in control rats not given compound
Put down the number, then write its unit next to it.

The compound listed as O=c1oc2cc(CN3CCN(Cc4ccc(Cl)cc4)CC3)ccc2c(O)c1[N+](=O)[O-] [Example 5e] shows Dye concentration in peritoneal fluid as % of that in control rats not given compound equal to 103 ± 13%

The compound listed as O=c1oc2cc(OCC(O)CN3CCN(Cc4ccc(Cl)cc4)CC3)ccc2c(O)c1[N+](=O)[O-] (stereo not shown) [Example 2d] shows Dye concentration in peritoneal fluid as % of that in control rats not given compound equal to 46 ± 4%

The compound listed as CCCc1c(OCC(O)CN2CCN(Cc3ccc(Cl)cc3)CC2)ccc2c(O)c([N+](=O)[O-])c(=O)oc12 (stereo not shown) [Example 3d] shows Dye concentration in peritoneal fluid as % of that in control rats not given compound equal to 79 ± 9%

The compound listed as O=c1oc2cc(OCCCN3CCN(Cc4ccc(Cl)cc4)CC3)ccc2c(O)c1[N+](=O)[O-] [Example 1f] shows Dye concentration in peritoneal fluid as % of that in control rats not given compound equal to 32.1 ± 3.6%

* * *

# target or test system: histamine (spasmogenic effects) on isolated guinea pig ileum (Cavia porcellus)
# Construct: isolated guinea pig ileum; from tissue; host or cells: isolated guinea pig ileum
# run description: Anti-histamine activity in vitro on guinea pig ileum (pA2)
# test parameters: contact time 2.0 min, read-out: pA2 Mean ± SEM (antihistamine activity in vitro) (converted)
So I've got a bunch of molecules here, and I need their log10(Kb) values.
Answers are given as log10 of Kb in nM.

The molecule listed as `O=c1oc2cc(OCCCN3CCN(Cc4ccccc4)CC3)ccc2c(O)c1[N+](=O)[O-]` shows log10(Kb) equal to 1.40

The molecule listed as CCCc1c(OCC(O)CN2CCN(Cc3ccc(Cl)cc3)CC2)ccc2c(O)c([N+](=O)[O-])c(=O)oc12 (stereo not drawn) shows log10(Kb) equal to 1.00

The molecule listed as `O=c1oc2cc(OCCN3CCN(Cc4ccc(Cl)cc4)CC3)ccc2c(O)c1[N+](=O)[O-]` shows log10(Kb) equal to 1.70

The molecule listed as `O=c1oc2cc(OCCCN3CCN(Cc4ccc(Cl)cc4)CC3)ccc2c(O)c1[N+](=O)[O-]` shows log10(Kb) equal to 0.40

The molecule listed as O=c1oc2cc(OCC(O)CN3CCN(Cc4ccc(Cl)cc4)CC3)ccc2c(O)c1[N+](=O)[O-] (stereo not drawn) shows log10(Kb) equal to 1.30

The molecule listed as `O=c1oc2cc(CN3CCN(Cc4ccc(Cl)cc4)CC3)ccc2c(O)c1[N+](=O)[O-]` shows log10(Kb) equal to 3.30

* * *

So I've got a bunch of compounds here, and I need their Kb values.
# target or test system: histamine (spasmogenic effects) on isolated guinea pig ileum (Cavia porcellus)
# Construct: isolated guinea pig ileum; from tissue; host or cells: isolated guinea pig ileum
# run description: Anti-histamine activity in vitro on guinea pig ileum (pA2)
# test parameters: contact time 0.5 min, read-out: pA2 Mean ± SEM (antihistamine activity in vitro) (converted)
Answer in nM, number only, no unit symbol.

The compound listed as CCCc1c(OCC(O)CN2CCN(Cc3ccc(Cl)cc3)CC2)ccc2c(O)c([N+](=O)[O-])c(=O)oc12 (stereo not drawn) [Example 3d] shows Kb equal to 25.1

The compound listed as O=c1oc2cc(OCCCN3CCN(Cc4ccccc4)CC3)ccc2c(O)c1[N+](=O)[O-] [Example 6d] shows Kb equal to 79.4

The compound listed as O=c1oc2cc(OCCN3CCN(Cc4ccc(Cl)cc4)CC3)ccc2c(O)c1[N+](=O)[O-] [Example 4d] shows Kb equal to 63.1

The compound listed as O=c1oc2cc(OCC(O)CN3CCN(Cc4ccc(Cl)cc4)CC3)ccc2c(O)c1[N+](=O)[O-] (stereo not drawn) [Example 2d] shows Kb equal to 50.1

The compound listed as O=c1oc2cc(OCCCN3CCN(Cc4ccc(Cl)cc4)CC3)ccc2c(O)c1[N+](=O)[O-] [Example 1f] shows Kb equal to 15.8

The compound listed as O=c1oc2cc(CN3CCN(Cc4ccc(Cl)cc4)CC3)ccc2c(O)c1[N+](=O)[O-] [Example 5e] shows Kb equal to 2000

* * *

# Test system: rat passive peritoneal anaphylaxis
# run description: Rat passive peritoneal anaphylaxis (PPA)
# Assay type: in vivo
# test parameters: 2 × 10^-5 M injected i.p., mean ± SEM, 3-7 rats per group
The label Criterion met is reserved for Dye concentration in peritoneal fluid as % of that in control rats not given compound strictly under 50%; Criterion not met covers values equal to or above it.

**Query** Hi there! Is Dye concentration in peritoneal fluid as % of that in control rats not given compound for `O=c1oc2cc(OCCCN3CCN(Cc4ccccc4)CC3)ccc2c(O)c1[N+](=O)[O-]` below 50%, do you know?
**Result** Criterion not met

**Query** Hi there! Is Dye concentration in peritoneal fluid as % of that in control rats not given compound for `O=c1oc2cc(OCCN3CCN(Cc4ccc(Cl)cc4)CC3)ccc2c(O)c1[N+](=O)[O-]` below 50%, do you know?
**Result** Criterion not met

**Query** Hi there! Is Dye concentration in peritoneal fluid as % of that in control rats not given compound for `O=c1oc2cc(CN3CCN(Cc4ccc(Cl)cc4)CC3)ccc2c(O)c1[N+](=O)[O-]` below 50%, do you know?
**Result** Criterion not met

**Query** Hi there! Is Dye concentration in peritoneal fluid as % of that in control rats not given compound for O=c1oc2cc(OCC(O)CN3CCN(Cc4ccc(Cl)cc4)CC3)ccc2c(O)c1[N+](=O)[O-] (centres unmarked) below 50%, do you know?
**Result** Criterion met

**Query** Hi there! Is Dye concentration in peritoneal fluid as % of that in control rats not given compound for CCCc1c(OCC(O)CN2CCN(Cc3ccc(Cl)cc3)CC2)ccc2c(O)c([N+](=O)[O-])c(=O)oc12 (centres unmarked) below 50%, do you know?
**Result** Criterion met

* * *

# target or test system: histamine (spasmogenic effects) on isolated guinea pig ileum (Cavia porcellus, UniProt P31389)
# Construct: isolated guinea pig ileum; from tissue; host or cells: isolated guinea pig ileum
# Sequence (P31389 whole entry): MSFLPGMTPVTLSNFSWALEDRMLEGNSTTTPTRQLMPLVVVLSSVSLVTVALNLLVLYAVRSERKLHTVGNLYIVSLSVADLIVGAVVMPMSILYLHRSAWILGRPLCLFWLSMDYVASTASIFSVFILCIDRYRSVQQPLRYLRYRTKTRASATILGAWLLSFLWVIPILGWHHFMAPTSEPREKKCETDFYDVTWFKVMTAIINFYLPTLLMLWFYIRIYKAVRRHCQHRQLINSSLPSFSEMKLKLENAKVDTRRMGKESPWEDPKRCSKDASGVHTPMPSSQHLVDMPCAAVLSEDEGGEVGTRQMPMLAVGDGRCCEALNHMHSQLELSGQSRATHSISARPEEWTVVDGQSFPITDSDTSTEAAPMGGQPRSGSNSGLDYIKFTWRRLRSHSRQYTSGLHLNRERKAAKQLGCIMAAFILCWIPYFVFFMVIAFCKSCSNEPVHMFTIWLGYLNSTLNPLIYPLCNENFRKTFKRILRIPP
# run description: Anti-histamine activity in vitro on guinea pig ileum (pA2)
# test parameters: contact time 10.0 min, (part assay) for 4d
property: pA2 Mean ± SEM (antihistamine activity in vitro)
Keep the answer to the number alone.

The compound listed as CCCc1c(OCC(O)CN2CCN(Cc3ccc(Cl)cc3)CC2)ccc2c(O)c([N+](=O)[O-])c(=O)oc12 (stereo not shown) [Example 3d] shows pA2 Mean ± SEM (antihistamine activity in vitro) equal to 8.4

The compound listed as O=c1oc2cc(CN3CCN(Cc4ccc(Cl)cc4)CC3)ccc2c(O)c1[N+](=O)[O-] [Example 5e] shows pA2 Mean ± SEM (antihistamine activity in vitro) equal to 5.6

The compound listed as O=c1oc2cc(OCC(O)CN3CCN(Cc4ccc(Cl)cc4)CC3)ccc2c(O)c1[N+](=O)[O-] (stereo not shown) [Example 2d] shows pA2 Mean ± SEM (antihistamine activity in vitro) equal to 8.3

The compound listed as O=c1oc2cc(OCCCN3CCN(Cc4ccccc4)CC3)ccc2c(O)c1[N+](=O)[O-] [Example 6d] shows pA2 Mean ± SEM (antihistamine activity in vitro) equal to 7.9
